Reference source for all entries: the supplement of paper PMC8728848

Overview of reported glycan array binding signal (z-score) across a group of binders:
- Target Entity: Gal(b1-4)GlcNAc(b1-3)Gal(b1-3)GlcNAc
- Protocol Summary: glycan array binding signal (z-score within array); higher = stronger binding
- Condition Details: glycan notation: IUPAC condensed, linker removed
Many of the other results were omitted from the sample, so the strongest signals are more common in it than they were.
Field format: numeric only.

So, EUL D1A second (Oryza sativa) (protein) GAATACTIGGVPVHTVRVFSAAGEDYCLTVRNGTACLAPKNPRDDYQHWIKDMRHSNKIRDEEGYPAFALVNKVTGEAIKHSTGQGHPVKLVPYNPEYQDESVLWTESKDVGKGFRCIRMVNNIYLNFDAFHGDKDHGGIHDGTEIVLWKWCEGDNQRWKILPWILEQKLISEEDLNSAVDHHHHHH ? Its glycan array binding signal (z-score) was -0.245

Consider EPL1 (Trichoderma atroviride), A0PCX2 (protein) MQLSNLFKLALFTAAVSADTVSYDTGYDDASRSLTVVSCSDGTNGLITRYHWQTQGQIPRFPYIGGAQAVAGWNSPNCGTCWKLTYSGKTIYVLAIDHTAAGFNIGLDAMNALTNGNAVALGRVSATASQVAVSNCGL . Its measured glycan array binding signal (z-score) is -0.08
